Task for the reader: assign each of the following sequences its reported Absorbance Units for different sera.
System: antibodies against HCV
Assay: PEPSCAN analysis of overlapping octameric peptides of the HCV core protein N-terminal region with HCV-seropositive sera
Type: binding, human
Conditions: serum 65234; read at 405 nm
Method: The N-terminal 97 amino acid residues of HCV Core protein SEQ ID NO: 8 was mapped with PEPSCAN analysis. […] Assay: The assay format involves sequentially incubating the various pins in microwell plates containing blocking, test antibody, conjugate, and substrate solutions. […] When the pin is then immersed in substrate, the enzyme brings about the colour change which is used to quantify the amount of anti-peptide antibody bound. […]
Ends that are not written are not given here.
Numbers only, in Absorbance Units.

As a guide, the following entries are already answered.
GPRLGVRA (pin support) [overlapping octameric peptide of HCV core protein on pin support] : 75
GVYLLPRR (also: pin support) [Gly-Val-Tyr-Leu-Leu-Pro-Arg-Arg, overlapping octameric peptide of HCV core protein on pin support] : 229

Provide reported Absorbance Units for different sera for each item, in the same order as listed.
1. RRGPRLGV (pin support) [overlapping octameric peptide of HCV core protein on pin support]
2. IVGGVYLL (pin support) [overlapping octameric peptide of HCV core protein on pin support]
3. YLLPRRGP (pin support) [Tyr-Leu-Leu-Pro-Arg-Arg-Gly-Pro, overlapping octameric peptide of HCV core protein on pin support]

146
186
177
